Conditions: in THF, 298.15 K
readout kind: solubility (mole fraction)

smiles notation: N#CCNC(=O)c1cnccc1C(F)(F)F
readout number: 0.0387

----------
Conditions: in isobutanol, 323.15 K

smiles notation: N#CCNC(=O)c1cnccc1C(F)(F)F
solubility (mole fraction): 0.011

----------
Conditions: in acetonitrile, 318.15 K
readout kind: solubility (mole fraction)

smiles notation: N#CCNC(=O)c1cnccc1C(F)(F)F
readout number: 0.0557

----------
Conditions: in acetonitrile, 323.15 K

smiles notation: N#CCNC(=O)c1cnccc1C(F)(F)F
solubility (mole fraction): 0.0657

----------
Settings: in n-propanol, 283.15 K
readout kind: solubility (mole fraction)

smiles notation: N#CCNC(=O)c1cnccc1C(F)(F)F
readout kind: solubility (mole fraction)
result: 0.00267

----------
Conditions: in acetone, 323.15 K

smiles notation: N#CCNC(=O)c1cnccc1C(F)(F)F
solubility (mole fraction): 0.099

----------
Conditions: in n-propanol, 313.15 K

smiles notation: N#CCNC(=O)c1cnccc1C(F)(F)F
solubility (mole fraction): 0.0109

----------
Conditions: in isopropanol, 293.15 K

smiles notation: N#CCNC(=O)c1cnccc1C(F)(F)F
solubility (mole fraction): 0.00424

----------
Conditions: in THF, 303.15 K

smiles notation: N#CCNC(=O)c1cnccc1C(F)(F)F
solubility (mole fraction): 0.044

----------
Settings: in isobutanol, 303.15 K
readout kind: solubility (mole fraction)

smiles notation: N#CCNC(=O)c1cnccc1C(F)(F)F
readout number: 0.00441

----------
Conditions: in methanol, 293.15 K
readout kind: solubility (mole fraction)

smiles notation: N#CCNC(=O)c1cnccc1C(F)(F)F
readout number: 0.0139

----------
Conditions: in n-propanol, 303.15 K
readout kind: solubility (mole fraction)

smiles notation: N#CCNC(=O)c1cnccc1C(F)(F)F
readout kind: solubility (mole fraction)
result: 0.00691

----------
Conditions: in isopropanol, 303.15 K

smiles notation: N#CCNC(=O)c1cnccc1C(F)(F)F
solubility (mole fraction): 0.00696

----------
Details: in n-butanol, 288.15 K
readout kind: solubility (mole fraction)

smiles notation: N#CCNC(=O)c1cnccc1C(F)(F)F
readout number: 0.00376

----------
Settings: in n-butanol, 323.15 K
readout kind: solubility (mole fraction)

smiles notation: N#CCNC(=O)c1cnccc1C(F)(F)F
readout number: 0.0169

----------
Conditions: in 1,4-dioxane, 323.15 K

smiles notation: N#CCNC(=O)c1cnccc1C(F)(F)F
solubility (mole fraction): 0.0482

----------
Conditions: in methanol, 313.15 K
readout kind: solubility (mole fraction)

smiles notation: N#CCNC(=O)c1cnccc1C(F)(F)F
readout number: 0.0286

----------
Conditions: in n-propanol, 308.15 K
readout kind: solubility (mole fraction)

smiles notation: N#CCNC(=O)c1cnccc1C(F)(F)F
readout number: 0.00874

----------
Conditions: in ethyl acetate, 298.15 K
readout kind: solubility (mole fraction)

smiles notation: N#CCNC(=O)c1cnccc1C(F)(F)F
readout kind: solubility (mole fraction)
readout number: 0.0158

----------
Conditions: in isobutanol, 298.15 K
readout kind: solubility (mole fraction)

smiles notation: N#CCNC(=O)c1cnccc1C(F)(F)F
readout kind: solubility (mole fraction)
result: 0.00343

----------
Conditions: in ethyl acetate, 283.15 K

smiles notation: N#CCNC(=O)c1cnccc1C(F)(F)F
solubility (mole fraction): 0.00961

----------
Conditions: in acetone, 298.15 K
readout kind: solubility (mole fraction)

smiles notation: N#CCNC(=O)c1cnccc1C(F)(F)F
result: 0.0527

----------
Settings: in n-butyl acetate, 283.15 K

smiles notation: N#CCNC(=O)c1cnccc1C(F)(F)F
solubility (mole fraction): 0.00479

----------
Details: in acetonitrile, 298.15 K

smiles notation: N#CCNC(=O)c1cnccc1C(F)(F)F
solubility (mole fraction): 0.0289

----------
Conditions: in n-butyl acetate, 293.15 K

smiles notation: N#CCNC(=O)c1cnccc1C(F)(F)F
solubility (mole fraction): 0.00684

----------
Conditions: in ethanol, 323.15 K

smiles notation: N#CCNC(=O)c1cnccc1C(F)(F)F
solubility (mole fraction): 0.0246

----------
Conditions: in acetone, 313.15 K

smiles notation: N#CCNC(=O)c1cnccc1C(F)(F)F
solubility (mole fraction): 0.0766

----------
Details: in n-butyl acetate, 323.15 K

smiles notation: N#CCNC(=O)c1cnccc1C(F)(F)F
solubility (mole fraction): 0.0173

----------
Conditions: in ethyl acetate, 303.15 K
readout kind: solubility (mole fraction)

smiles notation: N#CCNC(=O)c1cnccc1C(F)(F)F
readout kind: solubility (mole fraction)
result: 0.0182

----------
Settings: in n-butanol, 298.15 K

smiles notation: N#CCNC(=O)c1cnccc1C(F)(F)F
solubility (mole fraction): 0.00589

----------
Conditions: in n-butyl acetate, 308.15 K

smiles notation: N#CCNC(=O)c1cnccc1C(F)(F)F
solubility (mole fraction): 0.011

----------
Conditions: in THF, 323.15 K

smiles notation: N#CCNC(=O)c1cnccc1C(F)(F)F
solubility (mole fraction): 0.072

----------
Conditions: in n-butanol, 293.15 K
readout kind: solubility (mole fraction)

smiles notation: N#CCNC(=O)c1cnccc1C(F)(F)F
result: 0.00475

----------
Details: in THF, 283.15 K
readout kind: solubility (mole fraction)

smiles notation: N#CCNC(=O)c1cnccc1C(F)(F)F
result: 0.0263

----------
Conditions: in n-propanol, 293.15 K

smiles notation: N#CCNC(=O)c1cnccc1C(F)(F)F
solubility (mole fraction): 0.00436

----------
Conditions: in ethyl acetate, 318.15 K

smiles notation: N#CCNC(=O)c1cnccc1C(F)(F)F
solubility (mole fraction): 0.0288

----------
Details: in n-butanol, 303.15 K
readout kind: solubility (mole fraction)

smiles notation: N#CCNC(=O)c1cnccc1C(F)(F)F
readout number: 0.00731

----------
Details: in ethanol, 303.15 K
readout kind: solubility (mole fraction)

smiles notation: N#CCNC(=O)c1cnccc1C(F)(F)F
readout kind: solubility (mole fraction)
result: 0.0107

----------
Details: in n-butyl acetate, 303.15 K

smiles notation: N#CCNC(=O)c1cnccc1C(F)(F)F
solubility (mole fraction): 0.00932

----------
Settings: in 1,4-dioxane, 318.15 K
readout kind: solubility (mole fraction)

smiles notation: N#CCNC(=O)c1cnccc1C(F)(F)F
result: 0.041

----------
Conditions: in n-propanol, 288.15 K

smiles notation: N#CCNC(=O)c1cnccc1C(F)(F)F
solubility (mole fraction): 0.00344

----------
Conditions: in acetonitrile, 293.15 K
readout kind: solubility (mole fraction)

smiles notation: N#CCNC(=O)c1cnccc1C(F)(F)F
result: 0.0245

----------
Settings: in ethanol, 288.15 K

smiles notation: N#CCNC(=O)c1cnccc1C(F)(F)F
solubility (mole fraction): 0.00546

----------
Details: in 1,4-dioxane, 303.15 K
readout kind: solubility (mole fraction)

smiles notation: N#CCNC(=O)c1cnccc1C(F)(F)F
readout kind: solubility (mole fraction)
readout number: 0.0248

----------
Settings: in ethyl acetate, 323.15 K
readout kind: solubility (mole fraction)

smiles notation: N#CCNC(=O)c1cnccc1C(F)(F)F
readout number: 0.033

----------
Settings: in THF, 318.15 K
readout kind: solubility (mole fraction)

smiles notation: N#CCNC(=O)c1cnccc1C(F)(F)F
readout number: 0.0645

----------
Conditions: in 1,4-dioxane, 313.15 K
readout kind: solubility (mole fraction)

smiles notation: N#CCNC(=O)c1cnccc1C(F)(F)F
readout number: 0.0348

----------
Conditions: in isobutanol, 313.15 K

smiles notation: N#CCNC(=O)c1cnccc1C(F)(F)F
solubility (mole fraction): 0.0071

----------
Settings: in isobutanol, 288.15 K
readout kind: solubility (mole fraction)

smiles notation: N#CCNC(=O)c1cnccc1C(F)(F)F
result: 0.00202

----------
Details: in methanol, 318.15 K

smiles notation: N#CCNC(=O)c1cnccc1C(F)(F)F
solubility (mole fraction): 0.034

----------
Settings: in methanol, 283.15 K
readout kind: solubility (mole fraction)

smiles notation: N#CCNC(=O)c1cnccc1C(F)(F)F
readout number: 0.00943

----------
Details: in isobutanol, 283.15 K

smiles notation: N#CCNC(=O)c1cnccc1C(F)(F)F
solubility (mole fraction): 0.00152

----------
Settings: in n-butyl acetate, 318.15 K

smiles notation: N#CCNC(=O)c1cnccc1C(F)(F)F
solubility (mole fraction): 0.015

----------
Conditions: in isopropanol, 323.15 K

smiles notation: N#CCNC(=O)c1cnccc1C(F)(F)F
solubility (mole fraction): 0.0181

----------
Details: in acetone, 303.15 K
readout kind: solubility (mole fraction)

smiles notation: N#CCNC(=O)c1cnccc1C(F)(F)F
readout kind: solubility (mole fraction)
readout number: 0.0595

----------
Conditions: in acetone, 308.15 K

smiles notation: N#CCNC(=O)c1cnccc1C(F)(F)F
solubility (mole fraction): 0.0677

----------
Conditions: in ethyl acetate, 288.15 K

smiles notation: N#CCNC(=O)c1cnccc1C(F)(F)F
solubility (mole fraction): 0.0114

----------
Conditions: in n-propanol, 323.15 K
readout kind: solubility (mole fraction)

smiles notation: N#CCNC(=O)c1cnccc1C(F)(F)F
readout number: 0.0174
